Below, each of the binders is paired with its reported kon value.
- assayed target: T1, SARS-CoV2 Spike ecto foldon Trimer expressed with a C-terminal myc-myc-hexahistidine (SARS-CoV-2, UniProt P0DTC2 14-1213)
- T1 construct: extracellular domain
- procedure text: SPR Biacore, mAb captured by anti-hFc, 25C
endpoint label: kon

mAb15162 (antibody, V domains shown) VH: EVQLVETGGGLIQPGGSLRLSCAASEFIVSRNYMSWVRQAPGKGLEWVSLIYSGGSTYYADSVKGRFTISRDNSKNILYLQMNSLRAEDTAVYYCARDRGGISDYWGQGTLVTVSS VL: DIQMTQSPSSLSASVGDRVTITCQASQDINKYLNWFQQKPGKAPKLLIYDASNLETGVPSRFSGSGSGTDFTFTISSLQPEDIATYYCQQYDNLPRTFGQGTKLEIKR: 105000 M⁻¹ s⁻¹
mAb15151 (antibody, V domains shown) VH: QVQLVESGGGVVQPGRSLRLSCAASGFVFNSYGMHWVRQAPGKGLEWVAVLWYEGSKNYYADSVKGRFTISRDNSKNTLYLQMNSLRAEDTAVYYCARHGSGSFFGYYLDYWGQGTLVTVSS VL: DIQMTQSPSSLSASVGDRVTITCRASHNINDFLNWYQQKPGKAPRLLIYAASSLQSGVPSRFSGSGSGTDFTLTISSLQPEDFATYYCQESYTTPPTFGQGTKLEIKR: 335000 M⁻¹ s⁻¹
mAb14294 (antibody, V domains shown) VH: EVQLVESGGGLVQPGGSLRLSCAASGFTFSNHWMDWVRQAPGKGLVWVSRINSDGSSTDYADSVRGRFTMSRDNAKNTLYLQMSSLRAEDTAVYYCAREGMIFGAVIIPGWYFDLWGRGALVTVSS VL: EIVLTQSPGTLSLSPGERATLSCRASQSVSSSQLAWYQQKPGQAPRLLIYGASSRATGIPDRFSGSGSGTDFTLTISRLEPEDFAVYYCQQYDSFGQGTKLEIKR: 697000 M⁻¹ s⁻¹
